Would you mind telling me the reported expected percent binding of each entry?
# TARGET SYSTEM: T1, HCV Core1-169 (hepatitis C virus (HCV-1), UniProt P26664 1-169)
# T1 sequence: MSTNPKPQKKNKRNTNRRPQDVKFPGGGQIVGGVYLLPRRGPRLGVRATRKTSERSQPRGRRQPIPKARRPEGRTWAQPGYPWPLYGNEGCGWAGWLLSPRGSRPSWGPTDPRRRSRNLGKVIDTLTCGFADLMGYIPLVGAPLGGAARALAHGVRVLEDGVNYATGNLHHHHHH
# ASSAY NAME: SPR sandwich, capture mAb C11-7
Give bare numbers, in %.

For the 2 binders below, give their expected percent binding values.
1. HCV 208B-547 (antibody, V domains shown) VH: QVQLQQSGAELAKPGASVKMSCKASGYTFTSNKMHWAKQRPGQGLEWIGYIDPSSGYTEYNQKIKDKATLTADKSSSTAYMQLSSLTSEDSAVYYCTNFAYWGQGTLVTVSA VL: EVVLTQSPAITAASLGQKVTITCRASSSVSYMHWYRQKSGTSPQPWIYEISTLASGVPTRFRASGSGTSYSLTISSMEAEDAAIYYCQQWNYPLTFGAGTKLELKR
2. HCV 208B-589 (antibody, V domains shown) VH: QVQLQQSGAGLAKPGASVKMSCKASGYTFTANKMHWAKQRPGQGLEWIGYIDPSSGYTEYNHKIQDKATLTADTSSSTAYMQLSSLTFEDSAVYYCTNFAYWGQGTLVTVSA VL: DIVMTQTPLTLSVTIGQPASISCKSSQSLLFTNGKTYLNWFLQRPGQSPKRLIYLLSKLDSGVPDRFSGSGSGTDFTLKISRVEAEDLGVYYCLQSTYFPLTFGAGTKLELKR

8.3
11.7

Values were extracted from patent US20170052184A1.
